System: L1210 leukemia ip in BDF1 mice, survival T/C
Assay: NCI In Vivo Anticancer Drug Screen. Data for tumor model L1210 Leukemia (intraperitoneal) in B6D2F1 (BDF1) mice
Conditions: endpoint: mean survival time; dose: 12.5 mg/kg/injection; schedule: Q04DX003 (ip); vehicle: saline; higher = longer survival
Inconclusive results and toxic doses are left out.
measured-metric: T/C

Quick one: T/C for O=C1NC(c2ccccc2)C(=O)N1CCN(CCCl)CCCl (centres undefined) ?
103 % of control

Quick one: T/C for CCCCCCCCCCNC(=O)C[n+]1cccc(C(=O)N(CC)CC)c1 ?
96 % of control

Quick one: T/C for Cc1cc(CSC2=NCCCN2)c(CSC2=NCCCN2)cc1C ?
90 % of control

Quick one: T/C for C=C1N2CCC(CC2)C1(O)c1ccccc1 (centres undefined) ?
97 % of control

* * *

Tested on: L1210 leukemia ip in BDF1 mice, survival T/C
Assay: NCI In Vivo Anticancer Drug Screen. Data for tumor model L1210 Leukemia (intraperitoneal) in B6D2F1 (BDF1) mice
Details: endpoint: mean survival time; dose: 100.0 mg/kg/injection; schedule: Q01DX001 (ip); vehicle: saline; higher = longer survival
Toxic doses and inconclusive results are not listed.
What T/C was measured for each of the following?

What T/C appears in the records for this compound with L1210 leukemia ip in BDF1 mice, survival T/C? Cc1ccc(C(c2ccc(C)c(C)c2)C(c2ccc(C)c(C)c2)C(O)C(O)C(O)CO)cc1C (centres undefined)
106 % of control

What T/C appears in the records for this compound with L1210 leukemia ip in BDF1 mice, survival T/C? BrCc1nc2ccccc2[nH]1
95 % of control

What T/C appears in the records for this compound with L1210 leukemia ip in BDF1 mice, survival T/C? NNc1ccc(S(=O)(=O)C(F)F)cc1
95 % of control

What T/C appears in the records for this compound with L1210 leukemia ip in BDF1 mice, survival T/C? O=C1CCCC(=O)c2c(O)ccc(O)c21
96 % of control

What T/C appears in the records for this compound with L1210 leukemia ip in BDF1 mice, survival T/C? CNc1ccn(C2CCCO2)c(=O)n1 (centres undefined)
104 % of control

What T/C appears in the records for this compound with L1210 leukemia ip in BDF1 mice, survival T/C? CCC1=CC2CC3(C(=O)OC)c4[nH]c5ccccc5c4CC[N+](Cc4ccccc4)(C2)C13 (centres undefined)
100 % of control

What T/C appears in the records for this compound with L1210 leukemia ip in BDF1 mice, survival T/C? OC(c1ccccc1)(c1ccccc1)C1CCCCC1=C(c1ccccc1)c1ccccc1 (centres undefined)
88 % of control

What T/C appears in the records for this compound with L1210 leukemia ip in BDF1 mice, survival T/C? Cc1ccc(C(C)C)c(OC(=O)Nc2ccc(S(=O)(=O)NC3CCCCC3)cc2)c1
94 % of control

What T/C appears in the records for this compound with L1210 leukemia ip in BDF1 mice, survival T/C? CC(CCc1ccc2sc3ccccc3c2c1)C(N)=O (centres undefined)
94 % of control

What T/C appears in the records for this compound with L1210 leukemia ip in BDF1 mice, survival T/C? O=[N+]([O-])c1ccc(O)c(/C=N/N2CCN(/N=C/c3cc([N+](=O)[O-])ccc3O)CC2)c1
91 % of control

What T/C appears in the records for this compound with L1210 leukemia ip in BDF1 mice, survival T/C? O=C(CCl)c1ccc(Oc2ccc(C(=O)CCl)cc2)cc1
97 % of control

What T/C appears in the records for this compound with L1210 leukemia ip in BDF1 mice, survival T/C? CCCCOB(OCCCC)c1ccc(B(OCCCC)OCCCC)cc1
97 % of control

What T/C appears in the records for this compound with L1210 leukemia ip in BDF1 mice, survival T/C? N#Cc1ccc(S(N)(=O)=O)cc1
100 % of control

What T/C appears in the records for this compound with L1210 leukemia ip in BDF1 mice, survival T/C? Cc1ncc(C(=O)O)c2c1OC(C)(C)OC2
91 % of control

What T/C appears in the records for this compound with L1210 leukemia ip in BDF1 mice, survival T/C? O=C1C=CC(=O)N1c1ccc2c(c1)oc(=O)c1ccccc12
97 % of control

What T/C appears in the records for this compound with L1210 leukemia ip in BDF1 mice, survival T/C? CN(Cc1c(S)ccc2ccccc12)Cc1c(S)ccc2ccccc12
94 % of control

What T/C appears in the records for this compound with L1210 leukemia ip in BDF1 mice, survival T/C? O=C(O)c1c(Cl)cccc1[N+](=O)[O-]
100 % of control

What T/C appears in the records for this compound with L1210 leukemia ip in BDF1 mice, survival T/C? OCCN1CCNCC1
105 % of control

What T/C appears in the records for this compound with L1210 leukemia ip in BDF1 mice, survival T/C? O=[N+]([O-])c1ccc(O)c(N=Cc2ccccc2)c1
97 % of control

* * *

System: L1210 leukemia ip in BDF1 mice, survival T/C
Test: NCI In Vivo Anticancer Drug Screen. Data for tumor model L1210 Leukemia (intraperitoneal) in B6D2F1 (BDF1) mice
Details: endpoint: mean survival time; dose: 200.0 mg/kg/injection; schedule: Q04DX002 (ip); vehicle: Klucel (hydroxypropylcellulose) (HPC); higher = longer survival
Toxic doses and inconclusive results are not listed.
measured-metric: T/C

Quick one: T/C for COc1ccc(-c2ccc(C(C)=O)cc2)cc1 ?
100 % of control

Quick one: T/C for CCCCCCCCCC(O)CCCC(O)C(O)CCCCCCC(=O)O (configuration not stated) ?
91 % of control

Quick one: T/C for COc1ccc(NC(=O)COc2ccc(Cl)cc2Cl)cc1 ?
92 % of control

Quick one: T/C for CCOc1ccc(/C=N/NC(=O)c2ccccc2N)cc1OC ?
102 % of control

Quick one: T/C for CCc1cc2oc(C)c(C)c2c(N=Nc2ccc([N+](=O)[O-])cc2)c1O ?
96 % of control

Quick one: T/C for COC(=O)N/N=C/c1cc(OC)ccc1O ?
114 % of control

Quick one: T/C for COc1cccc(NC(=S)Nc2ccc(O)cc2)c1 ?
101 % of control

* * *

What T/C was measured for each of the following?
Tested on: L1210 leukemia ip in BDF1 mice, survival T/C
Assay: NCI In Vivo Anticancer Drug Screen. Data for tumor model L1210 Leukemia (intraperitoneal) in B6D2F1 (BDF1) mice
Settings: endpoint: mean survival time; dose: 100.0 mg/kg/injection; schedule: Q04DX003 (ip); vehicle: saline with Tween-80; higher = longer survival
Toxic doses and inconclusive results are not listed. Peptide text beside a SMILES is read from it. * marks the point of attachment. Cbz = O=C(OCc1ccccc1)*

Quick one: T/C for c1cnc2c3c(ccc2c1)CN(C12CC4CC(CC(C4)C1)C2)CO3 ?
102 % of control

Quick one: T/C for N#CSc1nc2ccccc2s1 ?
96 % of control

Quick one: T/C for O=C(O)CC1CCC(CC(=O)O)CC1 (stereo not given) ?
92 % of control

Quick one: T/C for NC(=O)c1cccc([N+](=O)[O-])c1 ?
101 % of control

Quick one: T/C for C[Si](C)(C)Oc1cccc(O[Si](C)(C)C)c1 ?
95 % of control

Quick one: T/C for CNc1ccc(/C=N/CCl)cc1 ?
92 % of control

Quick one: T/C for CSc1nc(N)c(C(N)=O)cc1C#N ?
89 % of control

Quick one: T/C for CCCCCCCC(=O)NO ?
98 % of control

Quick one: T/C for Nc1ncnc2c1ncn2C1CC(O)C(CO)O1 (stereo not given) ?
101 % of control

Quick one: T/C for O=C(O)/C=C/C(=O)Nc1ccc(NC(=O)/C=C/C(=O)O)cc1 ?
98 % of control

Quick one: T/C for Cc1ccc(OS(=O)(=O)c2cccc([N+](=O)[O-])c2)cc1 ?
102 % of control

Quick one: T/C for CN(C)N=C(Cc1ccccc1)Cc1ccccc1 ?
103 % of control

Quick one: T/C for COC1(c2ccc(C(F)(F)F)cc2)OC1(C)C (stereo not given) ?
96 % of control

Quick one: T/C for CCC(=O)c1ccc(OCC(CN2CCN(c3ccccc3OC)CC2)OC(C)=O)cc1 (stereo not given) ?
97 % of control

Quick one: T/C for Cc1ccc([Si](C)Cl)cc1 ?
98 % of control

Quick one: T/C for COCC1OC(Nc2ccccc2)C(OC)C(OC)C1OC (stereo not given) ?
89 % of control

Quick one: T/C for CC1(c2ccco2)C(=O)NC(=O)N1C(=O)CCl (stereo not given) ?
96 % of control

Quick one: T/C for NC(=O)CN1C(=O)C2C3CCC(C3)C2C1=O (stereo not given) ?
107 % of control

Quick one: T/C for NC(=O)NN=C1CCCCCCCCCCC1 ?
97 % of control

Quick one: T/C for COC(=O)C(NC(=O)C1CCCN1C(=O)OCc1ccccc1)C(C)C (stereo not drawn) (Cbz-Pro-Val-OMe; configuration not given here) ?
106 % of control

Cited source for all entries: PubChem BioAssay AID248
